Target: Renin (Homo sapiens)
Test: Compound was tested for the inhibition of human plasma renin(Hu Renin)
pIC50: −log10 of the molar value.
Measure name: pIC50

CSC[C@H](NC(=O)[C@H](Cc1ccccc1)NC(=O)N1CCOCC1)C(=O)N[C@@H](CC1CCCCC1)C(O)P(=O)(OCc1ccccc1)OCc1ccccc1 (stereo partly drawn); 6.72

A: COP(=O)(OC)C(O)[C@H](CC1CCCCC1)NC(=O)[C@H](CCc1cnc[nH]1)NC(=O)[C@H](Cc1ccccc1)NC(=O)N1CCOCC1 (stereo partly drawn)
B: COP(=O)(OC)C(O)[C@H](CC1CCCCC1)NC(=O)[C@H](CSC)NC(=O)[C@H](Cc1ccccc1)NC(=O)N1CCOCC1 (stereo partly drawn)
Asked: Could you check which of A and B has a smaller value for pIC50? Kindly state the label of the option you pick.
Given back: A
(A: 6.72, B: 8.24)

* * *

Biological target: Renin (Homo sapiens)
Sequence (P00797 whole entry): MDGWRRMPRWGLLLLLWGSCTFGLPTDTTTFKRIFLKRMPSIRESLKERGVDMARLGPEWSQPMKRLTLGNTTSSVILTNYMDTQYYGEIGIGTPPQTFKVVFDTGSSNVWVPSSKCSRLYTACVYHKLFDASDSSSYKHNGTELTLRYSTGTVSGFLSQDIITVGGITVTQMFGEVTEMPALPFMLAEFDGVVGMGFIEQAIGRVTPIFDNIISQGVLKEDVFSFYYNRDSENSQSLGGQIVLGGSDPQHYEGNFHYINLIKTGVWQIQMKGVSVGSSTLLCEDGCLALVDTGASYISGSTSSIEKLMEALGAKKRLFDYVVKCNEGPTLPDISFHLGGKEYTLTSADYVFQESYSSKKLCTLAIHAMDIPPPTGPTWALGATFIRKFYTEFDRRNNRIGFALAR
Assay: Compound was tested for the inhibition of human plasma renin(Hu Renin)
pIC50: −log10 of the molar value.
Measure name: pIC50

CCCC[C@H](NC(=O)[C@H](Cc1ccccc1)NC(=O)N1CCOCC1)C(=O)N[C@@H](CC1CCCCC1)C(O)P(=O)(OC)OC (some centres undefined); 7.49

P: CCCOP(=O)(OCCC)C(O)[C@H](CC1CCCCC1)NC(=O)[C@H](CSC)NC(=O)[C@H](Cc1ccccc1)NC(=O)N1CCOCC1 (some centres undefined)
Q: CCOP(=O)(OCC)C(O)[C@H](CC1CCCCC1)NC(=O)[C@H](CSC)NC(=O)[C@H](Cc1ccccc1)NC(=O)N1CCOCC1 (some centres undefined)
R: CSC[C@H](NC(=O)[C@H](Cc1ccccc1)NC(=O)N1CCOCC1)C(=O)N[C@@H](CC1CCCCC1)C(O)P(=O)(OC(C)C)OC(C)C (some centres undefined)
Asked: # desc sort on pIC50 across 3 compounds # list labels per requested ordering
Given back: Q, P, R
(Q: 7.60, P: 7.22, R: 5.85)

These measurements were taken from ChEMBL document CHEMBL1127711.
